# target: T1, CRBN, Q96SW2;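 note: pooled lentiviral library of zinc finger degron-EGFP fusions in mCherry-positive Jurkat cells, FACS-sorted after compound exposure, with degron abundance counted by next-generation sequencing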
# T1 chain: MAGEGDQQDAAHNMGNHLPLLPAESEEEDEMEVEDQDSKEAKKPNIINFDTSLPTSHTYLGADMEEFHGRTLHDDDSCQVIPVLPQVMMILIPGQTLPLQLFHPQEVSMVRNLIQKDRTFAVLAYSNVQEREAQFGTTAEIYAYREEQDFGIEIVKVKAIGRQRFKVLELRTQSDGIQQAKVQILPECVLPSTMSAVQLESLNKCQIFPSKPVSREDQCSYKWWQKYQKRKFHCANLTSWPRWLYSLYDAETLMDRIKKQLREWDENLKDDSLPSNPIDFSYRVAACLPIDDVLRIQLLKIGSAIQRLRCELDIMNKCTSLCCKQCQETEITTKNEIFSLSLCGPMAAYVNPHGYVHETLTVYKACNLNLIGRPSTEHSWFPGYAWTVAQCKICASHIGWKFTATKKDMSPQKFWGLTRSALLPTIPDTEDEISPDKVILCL
# run_description: log2 fold change of degron read counts, EGFP-low vs EGFP+ sorted cells (limma voom), compound-induced degradation; higher = more compound-induced degradation of the degron-EGFP fusion; degrons are variants of IKZF1/3 zinc finger 2; compound dose not given here
# experimental_setup: Jurkat; 18 h; compound: compound 19 (5-tert-butyl-thalidomide)
The full ranking holds about 8,300 sequences; the median of “log2 fold change of degron read counts, EGFP-low vs EGFP+ sorted cells (limma voom), compound-induced degradation” is about -1.1, and the highest 2% start at about 3.2. This is one part of a sample in which the highest values are shown more often than they occur.
measured_parameter: log2 fold change of degron read counts

Use the examples below as a reference point.
FSCEVCGATFTQKGNLLRHIKL [46F_47S_49E_50V_52G_53A_54T_55F_67L_, Q9UKT9]
2.73
FDCEVCGATFTQKGNLLRHIKL [46F_47D_49E_50V_52G_53A_54T_55F_67L_, Q9UKT9]
0.941

Exercise: Respond only with log2 fold change of degron read counts recorded for LWCEICGFACTQKGNLLRHIKL [46L_47W_49E_50I_52G_53F_54A_55C_67L_, Q9UKT9]
Solution: 2.64

Exercise: Respond only with log2 fold change of degron read counts recorded for FGCEVCGATFTQKGNLLRHIKL [46F_47G_49E_50V_52G_53A_54T_55F_67L_, Q9UKT9]
Solution: 3.09

Exercise: Respond only with log2 fold change of degron read counts recorded for FYCDQCGAEFTQKGNLLRHIKL [46F_47Y_49D_50Q_52G_53A_54E_55F_67L_, Q9UKT9]
Solution: -1.15

Exercise: Respond only with log2 fold change of degron read counts recorded for FQCEVCGATFTQKGNLLRHIKL [46F_47Q_49E_50V_52G_53A_54T_55F_67L_, Q9UKT9]
Solution: 0.152

Exercise: Respond only with log2 fold change of degron read counts recorded for FYCEVCGATFTQKGNLLRHIKL [46F_47Y_49E_50V_52G_53A_54T_55F_67L_, Q9UKT9]
Solution: 3.1
